condition: in ethyl acetate, 298.15 K
measured-property: solubility (mole fraction)
Lab note: jot the number down without any unit.

Q. Return reported solubility (mole fraction); argument: Cc1c(Br)cccc1C(=O)O
A. 0.0464

----------
condition: in cyclohexane, 293.15 K
measured-property: solubility (mole fraction)
Could you keep your reply to the number by itself?

Q. Which value of solubility (mole fraction) has been reported for Cc1c(Br)cccc1C(=O)O in the records?
A. 0.00113

----------
condition: in methanol, 278.15 K
measured-property: solubility (mole fraction)
# print the numeric value only

Q. solubility (mole fraction) lookup needed for Cc1c(Br)cccc1C(=O)O , thanks.
A. 0.0205

----------
condition: in THF, 328.15 K
measured-property: solubility (mole fraction)
// return just the number, without any unit appended

Q. Please report the recorded solubility (mole fraction) for Cc1c(Br)cccc1C(=O)O .
A. 0.293

----------
condition: in acetonitrile, 318.15 K
measured-property: solubility (mole fraction)
Just the number, please, no unit after it.

Q. Item Cc1c(Br)cccc1C(=O)O has what recorded solubility (mole fraction)?
A. 0.0138

----------
condition: in methanol, 293.15 K
measured-property: solubility (mole fraction)

Q. Entry Cc1c(Br)cccc1C(=O)O has what solubility (mole fraction)?
A. 0.0355

----------
condition: in ethanol, 288.15 K
measured-property: solubility (mole fraction)

Q. Could you share which solubility (mole fraction) value was measured for Cc1c(Br)cccc1C(=O)O ?
A. 0.0449

----------
condition: in ethanol, 313.15 K
measured-property: solubility (mole fraction)
// return just the number, without any unit appended

Q. solubility (mole fraction) lookup needed for Cc1c(Br)cccc1C(=O)O , thanks.
A. 0.0831

----------
condition: in ethyl acetate, 328.15 K
measured-property: solubility (mole fraction)

Q. // returns reported solubility (mole fraction) for input Cc1c(Br)cccc1C(=O)O
A. 0.101

----------
condition: in acetonitrile, 303.15 K
measured-property: solubility (mole fraction)
Reply briefly: the number, and no unit.

Q. Item under review: Cc1c(Br)cccc1C(=O)O . Reported solubility (mole fraction)?
A. 0.00779

----------
condition: in methanol, 303.15 K
measured-property: solubility (mole fraction)
Answer field: number only, no words.

Q. Give the measured solubility (mole fraction) of Cc1c(Br)cccc1C(=O)O .
A. 0.0479

----------
condition: in ethyl acetate, 308.15 K
measured-property: solubility (mole fraction)

Q. Tell me the measured solubility (mole fraction) of Cc1c(Br)cccc1C(=O)O , please.
A. 0.0601

----------
condition: in DMF, 313.15 K
measured-property: solubility (mole fraction)
Give the figure by itself; no unit, no explanation.

Q. Report solubility (mole fraction) for Cc1c(Br)cccc1C(=O)O please.
A. 0.361

----------
condition: in acetonitrile, 293.15 K
measured-property: solubility (mole fraction)
# respond with the number and nothing more

Q. Name the recorded solubility (mole fraction) for Cc1c(Br)cccc1C(=O)O .
A. 0.006

----------
condition: in ethanol, 318.15 K
measured-property: solubility (mole fraction)
# output: bare number, no unit

Q. Which solubility (mole fraction) value is on record for Cc1c(Br)cccc1C(=O)O ?
A. 0.0936

----------
condition: in methanol, 323.15 K
measured-property: solubility (mole fraction)
# respond with the number and nothing more

Q. Which solubility (mole fraction) value is on record for Cc1c(Br)cccc1C(=O)O ?
A. 0.0815

----------
condition: in cyclohexane, 313.15 K
measured-property: solubility (mole fraction)
# output: bare number, no unit

Q. Would you mind telling me what solubility (mole fraction) value was observed for Cc1c(Br)cccc1C(=O)O ?
A. 0.00249

----------
condition: in ethyl acetate, 323.15 K
measured-property: solubility (mole fraction)

Q. Requested field: solubility (mole fraction). Item: Cc1c(Br)cccc1C(=O)O
A. 0.0879

----------
condition: in THF, 293.15 K
measured-property: solubility (mole fraction)
Just the number, please.

Q. Can you look up the measured solubility (mole fraction) of Cc1c(Br)cccc1C(=O)O for me?
A. 0.209

----------
condition: in ethanol, 308.15 K
measured-property: solubility (mole fraction)
I only need the number, thanks.

Q. Requested read-out: solubility (mole fraction). Entry: Cc1c(Br)cccc1C(=O)O
A. 0.0703

----------
condition: in DMF, 278.15 K
measured-property: solubility (mole fraction)
Please state the value as a number alone, without comment.

Q. Please give the measured solubility (mole fraction) for this compound: Cc1c(Br)cccc1C(=O)O
A. 0.104

----------
condition: in DMF, 283.15 K
measured-property: solubility (mole fraction)

Q. What does the data say about its solubility (mole fraction)? Entry: Cc1c(Br)cccc1C(=O)O
A. 0.126

----------
condition: in methanol, 328.15 K
measured-property: solubility (mole fraction)
I only need the number, thanks.

Q. For Cc1c(Br)cccc1C(=O)O , what is its reported solubility (mole fraction)?
A. 0.0895

----------
condition: in THF, 278.15 K
measured-property: solubility (mole fraction)

Q. // solubility (mole fraction) lookup, key: Cc1c(Br)cccc1C(=O)O
A. 0.169

----------
condition: in ethanol, 328.15 K
measured-property: solubility (mole fraction)

Q. For Cc1c(Br)cccc1C(=O)O , what is its reported solubility (mole fraction)?
A. 0.121

----------
condition: in cyclohexane, 303.15 K
measured-property: solubility (mole fraction)
// no unit string in output, number only

Q. # solubility (mole fraction) lookup, item Cc1c(Br)cccc1C(=O)O
A. 0.00162

----------
condition: in ethanol, 283.15 K
measured-property: solubility (mole fraction)
I only need the number, thanks.

Q. I would be grateful if you could share the reported solubility (mole fraction) for Cc1c(Br)cccc1C(=O)O .
A. 0.0398

----------
condition: in acetonitrile, 278.15 K
measured-property: solubility (mole fraction)
When you answer, write just the number.

Q. Quick one: solubility (mole fraction) of Cc1c(Br)cccc1C(=O)O ?
A. 0.00326

----------
condition: in DMF, 293.15 K
measured-property: solubility (mole fraction)
Please respond with just the number, no unit label.

Q. Quick one: solubility (mole fraction) for Cc1c(Br)cccc1C(=O)O ?
A. 0.181

----------
condition: in acetonitrile, 313.15 K
measured-property: solubility (mole fraction)
Enter a number only.

Q. Recorded solubility (mole fraction) of Cc1c(Br)cccc1C(=O)O , please.
A. 0.0113

----------
condition: in ethanol, 293.15 K
measured-property: solubility (mole fraction)
In your answer, state the number alone without any accompanying words.

Q. Look up solubility (mole fraction) for this compound: Cc1c(Br)cccc1C(=O)O
A. 0.0513

----------
condition: in cyclohexane, 298.15 K
measured-property: solubility (mole fraction)
Please respond with just the number, no unit label.

Q. Record request: solubility (mole fraction) value, item Cc1c(Br)cccc1C(=O)O
A. 0.00135

----------
condition: in THF, 323.15 K
measured-property: solubility (mole fraction)

Q. Record request: solubility (mole fraction) value, item Cc1c(Br)cccc1C(=O)O
A. 0.282
